Each recorded value in this set is attributed to ChEMBL document CHEMBL1132790.

- Assay: Compound was tested for ribonucleotide reductase (RR) activity by inhibition of dGTP-activated ADP reduction
Quantity: log10(Ki) (log10 of the value in µM)
Note: values are log10 of Ki expressed in µM.

// query log10(Ki) value for entry C=CS(=O)(=O)CCCCCCS(=O)(=O)CCSc1nc2c(N)ncnc2n1C1O[C@@H](COP(=O)(O)OP(=O)(O)O)[C@H](O)[C@@H]1O (some centres not stated) 1.34

// query log10(Ki) value for entry Nc1nc(O)c2nc(S)n(C3CC(O)C(COP(=O)(O)OP(=O)(O)OP(=O)(O)O)O3)c2n1 (configuration not stated) 1.11

// query log10(Ki) value for entry Nc1ncnc2c1nc(SCCS(=O)(=O)CCCCCCS(=O)(=O)CCSc1nc3c(N)ncnc3n1C1O[C@H](COP(=O)(O)OP(=O)(O)O)[C@@H](O)[C@H]1O)n2C1O[C@H](COP(=O)(O)OP(=O)(O)O)[C@H](O)[C@@H]1O (some centres not stated) 1.28

// query log10(Ki) value for entry C=CS(=O)(=O)CCCCCCS(=O)(=O)CCSc1nc2c(O)nc(N)nc2n1C1C[C@@H](O)[C@H](COP(=O)(O)OP(=O)(O)OP(=O)(O)O)O1 (some centres not stated) 0.95

// query log10(Ki) value for entry "Nc1ncnc2c1nc(Br)n2[C@@H]1O[C@H](COP(=O)(O)OP(=O)(O)O)[C@@H](O)[C@H]1O" 1.89

// query log10(Ki) value for entry Nc1nc(O)c2nc(Br)n(C3CC(O)C(COP(=O)(O)OP(=O)(O)OP(=O)(O)O)O3)c2n1 (configuration not stated) 1.75

// query log10(Ki) value for entry Nc1ncnc2c1nc(S)n2C1O[C@@H](COP(=O)(O)OP(=O)(O)O)[C@H](O)[C@@H]1O (some centres not stated) 2.20
